pIC50 overview
MEASURED TARGET: TAK1/TAB1 (Homo sapiens, UniProt O43318)
Sequence (Q15750 whole entry): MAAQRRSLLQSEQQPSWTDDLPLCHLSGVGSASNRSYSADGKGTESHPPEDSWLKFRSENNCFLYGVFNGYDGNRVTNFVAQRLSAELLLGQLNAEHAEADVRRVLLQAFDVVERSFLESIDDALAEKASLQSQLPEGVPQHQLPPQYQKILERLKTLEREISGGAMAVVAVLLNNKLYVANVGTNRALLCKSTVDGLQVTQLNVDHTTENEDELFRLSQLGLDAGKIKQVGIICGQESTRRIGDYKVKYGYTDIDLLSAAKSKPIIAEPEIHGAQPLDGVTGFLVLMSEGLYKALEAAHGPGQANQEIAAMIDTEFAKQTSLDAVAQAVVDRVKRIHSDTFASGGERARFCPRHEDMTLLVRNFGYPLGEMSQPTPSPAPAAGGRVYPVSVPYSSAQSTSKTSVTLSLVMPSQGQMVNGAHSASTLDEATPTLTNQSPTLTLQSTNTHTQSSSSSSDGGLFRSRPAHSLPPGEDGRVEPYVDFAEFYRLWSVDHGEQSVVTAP
Sequence (O43318 whole entry): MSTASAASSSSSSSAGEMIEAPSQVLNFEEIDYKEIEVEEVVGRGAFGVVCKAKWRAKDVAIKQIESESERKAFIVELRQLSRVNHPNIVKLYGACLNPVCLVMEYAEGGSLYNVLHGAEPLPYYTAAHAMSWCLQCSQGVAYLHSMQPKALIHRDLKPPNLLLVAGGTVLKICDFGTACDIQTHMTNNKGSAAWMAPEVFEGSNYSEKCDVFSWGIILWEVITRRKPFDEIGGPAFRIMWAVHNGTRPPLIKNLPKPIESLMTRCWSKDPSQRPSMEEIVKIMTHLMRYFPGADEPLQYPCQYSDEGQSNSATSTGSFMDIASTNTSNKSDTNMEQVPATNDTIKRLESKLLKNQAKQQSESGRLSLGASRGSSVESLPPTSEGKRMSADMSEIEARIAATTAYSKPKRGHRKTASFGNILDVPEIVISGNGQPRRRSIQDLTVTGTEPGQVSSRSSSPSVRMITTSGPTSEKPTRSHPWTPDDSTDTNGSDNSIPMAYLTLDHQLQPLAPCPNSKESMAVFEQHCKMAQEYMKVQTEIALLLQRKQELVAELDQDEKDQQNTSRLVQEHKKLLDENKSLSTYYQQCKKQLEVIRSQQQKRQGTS
TEST NAME: Inhibition of kinase tracer-236 binding to full length recombinant human His-tagged TAK1-TAB1 expressed in baculovirus by FRET assay
Schema: pIC50 number; meaning minus log10 of the concentration expressed in molar units.

> print(dat)
                      smiles.input   val
1  CC(=O)c1c[nH]c2ncnc(OCC(C)C)c12  5.77

Q. Enter reported pIC50 observed with TAK1/TAB1 (Homo sapiens, UniProt O43318) for `COC(=O)/C(C)=C/c1c[nH]c2ncnc(OCC(C)C)c12`
A. 6.37

====

pIC50 overview
MEASURED TARGET: TAK1/TAB1 (Homo sapiens, UniProt O43318)
TEST NAME: Inhibition of kinase tracer-236 binding to full length recombinant human His-tagged TAK1-TAB1 expressed in baculovirus by FRET assay
Schema: pIC50 number; meaning minus log10 of the concentration expressed in molar units.

Q. Can you share its pIC50? I mean this molecule: `N#C/C=C/c1c[nH]c2ncnc(OCc3ccccc3)c12`
A. 6.48

Q. Can you share its pIC50? I mean this molecule: `NC(=O)/C=C/c1c[nH]c2ncnc(OCc3cccc(F)c3)c12`
A. 7.29

Q. Can you share its pIC50? I mean this molecule: `CC(C)COc1ncnc2[nH]cc(C#CC(N)=O)c12`
A. 8.15

src = ChEMBL document CHEMBL3879912
